Experiment: TD Phase (Groups 1 and 3): plasma and ocular tissue concentrations and pharmacokinetics of Compound 18 and its metabolite Compound 4 after once daily ocular instillation of Compound 18 nanosuspension for 7 days
Type: in vivo, New Zealand white rabbits
Conditions: male, New Zealand white, rabbit, retina, other: ocular instillation (eye drop), 0.798 mg/kg/day, TD Phase, Group 1, 1 h, Mean; read-out: Final Compound 18 Retina Conc.

{"STRUCTURE_SMILES_STRING": "CCCc1nn(C)c2c(=O)[nH]c(-c3cc(S(=O)(=O)N4CC(CCCO[N+](=O)[O-])C4)ccc3OCC)nc12", "concentration at 1 h / ng/g": 18.1}

----------
Listing of recorded half-life by entry.
Test: TD Phase (Groups 1 and 3): plasma and ocular tissue concentrations and pharmacokinetics of Compound 18 and its metabolite Compound 4 after once daily ocular instillation of Compound 18 nanosuspension for 7 days
Type: in vivo, New Zealand white rabbits
Details: male, New Zealand white, rabbit, topical or ocular, 0.8 mg/kg/day; optic nerve, Day 7, from mean concentrations

{"STRUCTURE_SMILES_STRING": "CCCc1nn(C)c2c(=O)[nH]c(-c3cc(S(=O)(=O)N4CC(CCCO)C4)ccc3OCC)nc12", "half-life": "2.93 h"}
{"STRUCTURE_SMILES_STRING": "CCCc1nn(C)c2c(=O)[nH]c(-c3cc(S(=O)(=O)N4CC(CCCO[N+](=O)[O-])C4)ccc3OCC)nc12", "half-life": "2.43 h"}

----------
Experiment: TD Phase (Groups 1 and 3): plasma and ocular tissue concentrations and pharmacokinetics of Compound 18 and its metabolite Compound 4 after once daily ocular instillation of Compound 18 nanosuspension for 7 days
Type: in vivo, New Zealand white rabbits
Conditions: male, New Zealand white, rabbit, retina, other: ocular instillation (eye drop), 0.798 mg/kg/day, TD Phase, Group 3, 8 h, Mean; read-out: Final Compound 4 Retina Conc.

{"MOLECULE": "CCCc1nn(C)c2c(=O)[nH]c(-c3cc(S(=O)(=O)N4CC(CCCO)C4)ccc3OCC)nc12 [Compound 4]", "concentration at 8 h": "5.75 ng/g"}

----------
Listing of recorded Cmax by entry.
Experiment: PK Phase (Group 2): plasma concentrations and pharmacokinetics of Compound 18 and its metabolite Compound 4 after once daily ocular instillation of Compound 18 nanosuspension for 7 days
Assay type: in vivo, New Zealand white rabbits
Conditions: male, New Zealand white, rabbit, plasma, topical or ocular, 0.8 mg/kg, plasma, Day 1, Compound 18 0.8 mg/kg ocular instillation; animal 207665
PARAMETER: Cmax (ng/mL)

{"STRUCTURE_SMILES_STRING": "CCCc1nn(C)c2c(=O)[nH]c(-c3cc(S(=O)(=O)N4CC(CCCO[N+](=O)[O-])C4)ccc3OCC)nc12", "PARAMETER": "Cmax", "U": "ng/mL", "MEASUREMENT": 0.0721}
{"STRUCTURE_SMILES_STRING": "CCCc1nn(C)c2c(=O)[nH]c(-c3cc(S(=O)(=O)N4CC(CCCO)C4)ccc3OCC)nc12", "PARAMETER": "Cmax", "U": "ng/mL", "MEASUREMENT": 0.527}

----------
Assay: PK Phase (Group 2): plasma concentrations and pharmacokinetics of Compound 18 and its metabolite Compound 4 after once daily ocular instillation of Compound 18 nanosuspension for 7 days
Format: in vivo, New Zealand white rabbits
Settings: male, New Zealand white, rabbit, plasma, topical or ocular, 0.8 mg/kg, plasma, Day 1, Compound 18 0.8 mg/kg ocular instillation; animal 207666
Description: This example illustrates the procedures and results for the levels of Compound 18 and its metabolite Compound 4 in plasma and ocular tissues of normotensive rabbits following ocular instillation of Compound 18 once daily for 7 consecutive days. […] Plasma and tissue samples from treated animals (Groups 1-3) were analyzed for Compound 18 and its metabolite Compound 4 concentrations by LC-MS/MS. […] BA Assay: Quantitation Range 0.05 to 100 ng/mL for Compound 18, 0.15 to 100 ng/mL for Compound 4. […]
Listing of recorded Cmax by entry.

{"COMPOUND": "CCCc1nn(C)c2c(=O)[nH]c(-c3cc(S(=O)(=O)N4CC(CCCO[N+](=O)[O-])C4)ccc3OCC)nc12 [Compound 18]", "U": "ng/mL", "Cmax": 0.313}
{"COMPOUND": "CCCc1nn(C)c2c(=O)[nH]c(-c3cc(S(=O)(=O)N4CC(CCCO)C4)ccc3OCC)nc12 [Compound 4]", "U": "ng/mL", "Cmax": 1.7}
